- System: HCT116
- procedure.text: AC50 cell viability (CellTiter-Glo); higher = less potent
- test.conditions: 48 h
molecules and their reported AC50 cell viability
Your answer is read as µM, so omit the unit and give the number.

Study these solved cases before continuing.
molecule	reported.result
CCOC1=CC(=CC=C1C/2=N/[C@@](C)(C3=CC=C(Cl)C=C3)[C@](C)(N2C(=O)N4CCN(CC4)CC(=O)N5CCOCC5)C6=CC=C(Cl)C=C6)C(C)(C)C	9.17
COc1ccc(N2C(=O)N(c3c(C)cccc3Cl)Cc3cnc(Nc4ccc(C5CCN(C)CC5)cc4OC)nc32)nc1	10.5
O=C1NC(=O)[C@@H](c2c[nH]c3ccccc23)[C@H]1c1cn2c3c(cccc13)CCC2 [Tivantinib (ARQ 197)]	0.934

Lab note: next molecule to report on.
I have this molecule here, CCc1ccc(OCc2ccccc2C(=O)Nc2ccc3nc(C)cc(N)c3c2)cc1 , and I need its recorded AC50 cell viability.
3.32

###

- Test system: HCT116
- procedure.text: AC50 cell viability (CellTiter-Glo); higher = less potent
- test.conditions: 48 h
measurement.name: AC50 cell viability (µM)
Your answer is read as µM, so omit the unit and give the number.

Study these solved cases before continuing.
CC(C)c1cc(C(C)C)c(CC(=O)N[S+](=O)([O-])Oc2c(C(C)C)cccc2C(C)C)c(C(C)C)c1 14.8
C=CC(=O)Nc1cccc(Nc2nc(Nc3ccc(OCCOC)cc3)ncc2F)c1 14.8
Cc1nc2cnc3ccc(C#Cc4cccnc4)cc3c2n1-c1ccc(C(C)(C)C#N)cc1 1.18

I have this compound here, Cc1ccc(-c2ccc3ncc4c(c3n2)n(C2CCN(C(=O)[C@H](C)O)CC2)c(=O)n4C)cn1 , and I need its recorded AC50 cell viability.
0.166

###

compounds and their reported efficacy
- System: HCT116
- procedure.text: efficacy (fitted maximal change in viability relative to DMSO control); higher = less cytotoxic (negative = loss of viability)
- test.conditions: 48 h
Your answer is read as %, so omit the unit and give the number.

I have this compound here, COC1=CC=C(C=C1)C/2=C(OC3O[C@@H](C)[C@H](O)[C@@H](O)[C@H]3O)/C(=O)C4=C(O2)C(=C(OC5O[C@H](CO)[C@@H](O)[C@H](O)[C@H]5O)C=C4O)CC=C(C)C (stereo partly specified) , and I need its recorded efficacy.
-27.5

I have this compound here, N/C(=N\C(=O)c1nc(Cl)c(N)nc1N)NCc1ccccc1 , and I need its recorded efficacy.
-81

I have this compound here, CN1CCC(CC1)COC2=CN=C(N=C2)C3=CC(=CC=C3)CN4/N=C(\C=C/C4=O)C5=CC(=CC=C5)C#N , and I need its recorded efficacy.
-30.6

###

- System: HCT116
- procedure.text: efficacy (fitted maximal change in viability relative to DMSO control); higher = less cytotoxic (negative = loss of viability)
- test.conditions: 48 h
Structures can show the parent of a compound that is named as a salt.
measurement.name: efficacy (%)
Your answer is read as %, so omit the unit and give the number.

compound	experimental.target	efficacy / %
COCC(=O)NC/C=C/c1ccc2ncnc(Nc3ccc(Oc4ccc(C)nc4)c(C)c3)c2c1	HCT116	-64.8
CCCCNc1cc(C(=O)O)cc([S+](N)(=O)[O-])c1Oc1ccccc1 [Bumetanide]	HCT116	-7.8
CN(C)CCC=C1C2=C(C=CC=C2)\C=C/C3=C1C=CC=C3 [Cyclobenzaprine hydrochloride]	HCT116	-92.3

Lab note: next compound to report on.
I have this compound here, COc1cc(F)c(F)c(Nc2ccc(I)cc2F)c1N[S+](=O)([O-])C1(C[C@H](O)CO)CC1 , and I need its recorded efficacy.
-84.3

All values here come from the supplement of paper PMC10290057.
